For each entry below, report its IC50 value.
- System: human prostate cancer cell line PC-3
- protocol: MTT growth inhibition assay, PC-3
- Assay type: cell-based
- assay-context: PC-3, MTT, 96 hours incubation
Field format: number, assumed µM, no unit text.

For this molecule ( Cc1cc2c(cn1)C(c1ccccc1Cl)=Nc1c(n[nH]c1C)N2 ), measured IC50 is 1.9

Value of measured IC50 for the entry Cc1cc2c(cn1)C(c1ccccc1F)=Nc1c(n[nH]c1C)N2 : 11.3

# molecule CCc1cc2c(cn1)C(c1ccccc1Cl)=Nc1c(n[nH]c1C)N2 ; its IC50 = 0.85
